Data credit: patent US9617258B2

The entries below come with measured half-life at 1 μM values attached.
test: Stability of JAK3 covalent inhibitors in human whole blood; type: in vitro ADME; conditions: both sexes, whole blood, 37° C., read-out: Human blood stability t1/2

// below: answered compounds
- C=CC(=O)N1C[C@H](Nc2ccnc3[nH]cc(C#N)c23)CC[C@@H]1C: > 5.82 h
- C=CC(=O)N1CC[C@H](C)[C@@H](Nc2ncnc3[nH]ccc23)C1 [Example 11]: > 4.93 h
- C=CC(=O)N1CC[C@H](Nc2cnc3[nH]cc(C(=O)NC(C)C)c3n2)C1: > 6 h
- C=CC(=O)N1CCC(Nc2cnc3[nH]cc(C(=O)NC(C)C)c3n2)CC1: > 5.83 h
- C=CC(=O)N1C[C@H](F)C[C@@H](Nc2ncnc3[nH]ccc23)C1: 2.72 h

Continue with the next compound.
The reported value for C=CC(=O)N1CCC(Nc2cnc3[nH]cc(C(=O)NCC4CC(F)(F)C4)c3n2)CC1 in terms of half-life at 1 μM is 4.33 h

###

assay: Stability of JAK3 covalent inhibitors in human whole blood; format: in vitro ADME; conditions: both sexes, whole blood, 37° C., read-out: Human blood stability t1/2;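 also: parent compound remaining over incubation time quantified by LC-MS/MS as peak area ratio against an internal standard, using pooled K2-EDTA blood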
observationType: half-life at 1 μM

// below: answered molecules
• C=CC(=O)N1CCC[C@H](Nc2ncnc3[nH]ccc23)[C@H]1C (racemic) [Example 121] = > 6 h
• C=CC(=O)N1CCC(Nc2cnc3[nH]cc(C(=O)NCCC#N)c3n2)CC1 [Example 261] = > 6 h
• C=CC(=O)N1CCC(Nc2cnc3[nH]cc(C(=O)N[C@@H](C)CCC)c3n2)CC1 [Example 267] = 3.73 h
• C=CC(=O)N1CCC(Nc2cnc3[nH]cc(C(=O)NCC(C)C)c3n2)CC1 [Example 272] = 3.62 h

The reported value for C=CC(=O)N1CCC[C@@H](Nc2ncnc3[nH]cc(-c4ccc5c(cnn5C)c4)c23)C1 [Example 34] in terms of half-life at 1 μM is > 6 h

The reported value for C=C(C)C(=O)N1CC[C@@H]2CCN(c3ncnc4[nH]ccc34)[C@@H]2C1 [Example 85] in terms of half-life at 1 μM is > 6 h
